These measurements were taken from ChEMBL document CHEMBL1141077.

Measured pKi on Cannabinoid receptor 1 (Rattus norvegicus, UniProt P20272) follows.
Sequence (P20272 whole entry): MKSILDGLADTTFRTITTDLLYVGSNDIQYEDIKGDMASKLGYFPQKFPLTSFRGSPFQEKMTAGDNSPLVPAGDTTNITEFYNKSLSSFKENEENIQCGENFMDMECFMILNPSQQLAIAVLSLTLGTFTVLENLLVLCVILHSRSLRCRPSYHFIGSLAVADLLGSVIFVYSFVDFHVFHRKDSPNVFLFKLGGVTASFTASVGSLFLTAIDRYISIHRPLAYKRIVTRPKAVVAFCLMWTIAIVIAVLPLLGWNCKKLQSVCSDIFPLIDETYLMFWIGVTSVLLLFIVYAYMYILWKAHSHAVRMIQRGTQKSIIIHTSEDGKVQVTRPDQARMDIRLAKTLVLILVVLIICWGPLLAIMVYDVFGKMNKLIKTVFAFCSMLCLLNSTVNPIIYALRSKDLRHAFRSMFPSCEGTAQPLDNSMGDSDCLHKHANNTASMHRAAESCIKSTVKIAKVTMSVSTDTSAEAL
Remember, pKi is on a log scale: it is -log10 of the molar concentration.

The following molecules have reported results that may help.
# molecule, pKi
measured = [
    ("CN1CCCCC1Cn1cc(C(=O)c2ccc([N+](=O)[O-])c3ccccc23)c2ccccc21 (stereo not given)", 7.91),
    ("CN1CCCCC1Cn1cc(C(=O)c2ccccc2I)c2ccccc21 (stereo not given)", 8.92),
    ("CN1CCCCC1Cn1cc(C(=O)c2ccc(O)c3ccccc23)c2ccccc21 (stereo not given)", 8.66),
    ("CN1CCCCC1Cn1cc(C(=O)c2ccc(CCO)c3ccccc23)c2ccccc21 (stereo not given)", 8.89),
]

Next molecule, please.
Prompt line: Recorded pKi for Cc1ccc2ccccc2c1C(=O)c1cn(CC2CCCCN2C)c2ccccc12 (stereo not given) , please?
Response line: 8.11
